System: KRAS PDC tumor spheroids (HUVEC+MSC), viability;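 note: spheroids exposed to compounds for seven days before readout; 100% = DMSO vehicle control luminescence of the spheroids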
Assay: Anticancer human tumor 254851-301-R-J1-PDC patient-derived colon carcinoma cell line growth inhibition [KRAS2]
Details: second compound 10 µM; first compound 3.16 µM; active compounds read low
Each entry below carries its reported viability, T/C.
RECORDED METRIC: viability, T/C (%)

>>> experimental_value("COC(=O)c1ccc2c(C(=Nc3ccc(N(C)C(=O)CN4CCN(C)CC4)cc3)c3ccccc3)c(O)[nH]c2c1 + CC1OCC2(CCN(c3cnc(Sc4ccnc(N)c4Cl)c(N)n3)CC2)C1N")
41.4
>>> experimental_value("CC1COCCN1c1cc(-c2ccnn2C)c2ccnc(-c3ccn[nH]3)c2n1 (stereo unspecified) + CC1OCC2(CCN(c3cnc(Sc4ccnc(N)c4Cl)c(N)n3)CC2)C1N")
20
>>> experimental_value("CC1COCCN1c1cc(-c2ccnn2C)c2ccnc(-c3ccn[nH]3)c2n1 (stereo unspecified) + C=CC(=O)N1CCN(c2nc(=O)n(-c3c(C)ccnc3C(C)C)c3nc(-c4c(O)cccc4F)c(F)cc23)C(C)C1")
22.5
>>> experimental_value("O=C(c1cc(Cc2n[nH]c(=O)c3ccccc23)ccc1F)N1CCN(C(=O)C2CC2)CC1 + COc1cc2nc(C)nc(NC(C)c3cc(N)cc(C(F)(F)F)c3)c2cc1OC1CCOC1")
76.2
>>> experimental_value("CC(C)NCC(C(=O)N1CCN(c2ncnc3c2C(C)CC3O)CC1)c1ccc(Cl)cc1 (stereo unspecified) + COc1cc2nc(C)nc(NC(C)c3cc(N)cc(C(F)(F)F)c3)c2cc1OC1CCOC1")
15.5
>>> experimental_value("CC(=O)OC12COC1CC(O)C1(C)C(=O)C(O)C3=C(C)C(OC(=O)C(O)C(NC(=O)OC(C)(C)C)c4ccccc4)CC(O)(C(OC(=O)c4ccccc4)C21)C3(C)C (stereo unspecified) + COc1cc2nc(C)nc(NC(C)c3cc(N)cc(C(F)(F)F)c3)c2cc1OC1CCOC1")
24.4
>>> experimental_value("Cn1nccc1Nc1nccc(-c2cc3c(s2)C(C)(C)N(CCN2CCOCC2)C3=O)n1 + C=CC(=O)N1CCN(c2nc(=O)n(-c3c(C)ccnc3C(C)C)c3nc(-c4c(O)cccc4F)c(F)cc23)C(C)C1")
51.5
>>> experimental_value("O=C(c1cc(Cc2n[nH]c(=O)c3ccccc23)ccc1F)N1CCN(C(=O)C2CC2)CC1 + C=CC(=O)N1CCN(c2nc(=O)n(-c3c(C)ccnc3C(C)C)c3nc(-c4c(O)cccc4F)c(F)cc23)C(C)C1")
101
>>> experimental_value("COc1cc2nccc(Oc3ccc(NC(=O)C4(C(=O)Nc5ccc(F)cc5)CC4)cc3)c2cc1OC + COc1cc2nc(C)nc(NC(C)c3cc(N)cc(C(F)(F)F)c3)c2cc1OC1CCOC1")
4
>>> experimental_value("CC1OCC2(CCN(c3cnc(Sc4ccnc(N)c4Cl)c(N)n3)CC2)C1N (stereo unspecified) + C=CC(=O)N1CCN(c2nc(=O)n(-c3c(C)ccnc3C(C)C)c3nc(-c4c(O)cccc4F)c(F)cc23)C(C)C1")
56
>>> experimental_value("CC(=O)OC12COC1CC(O)C1(C)C(=O)C(O)C3=C(C)C(OC(=O)C(O)C(NC(=O)OC(C)(C)C)c4ccccc4)CC(O)(C(OC(=O)c4ccccc4)C21)C3(C)C (stereo unspecified) + CC1OCC2(CCN(c3cnc(Sc4ccnc(N)c4Cl)c(N)n3)CC2)C1N")
16.1
>>> experimental_value("COC(=O)c1ccc2c(C(=Nc3ccc(N(C)C(=O)CN4CCN(C)CC4)cc3)c3ccccc3)c(O)[nH]c2c1 + C=CC(=O)N1CCN(c2nc(=O)n(-c3c(C)ccnc3C(C)C)c3nc(-c4c(O)cccc4F)c(F)cc23)C(C)C1")
77.5
>>> experimental_value("COC(=O)c1ccc2c(C(=Nc3ccc(N(C)C(=O)CN4CCN(C)CC4)cc3)c3ccccc3)c(O)[nH]c2c1 + CNCc1ccccc1-c1csc(C(C)Nc2nc(C)nc3cc(OC)c(OC)cc23)c1")
0.1
>>> experimental_value("Cn1nccc1Nc1nccc(-c2cc3c(s2)C(C)(C)N(CCN2CCOCC2)C3=O)n1 + CC1OCC2(CCN(c3cnc(Sc4ccnc(N)c4Cl)c(N)n3)CC2)C1N")
3.18
>>> experimental_value("Cn1nccc1Nc1nccc(-c2cc3c(s2)C(C)(C)N(CCN2CCOCC2)C3=O)n1 + COc1cc2nc(C)nc(NC(C)c3cc(N)cc(C(F)(F)F)c3)c2cc1OC1CCOC1")
2.79
>>> experimental_value("CC1OCC2(CCN(c3cnc(Sc4ccnc(N)c4Cl)c(N)n3)CC2)C1N (stereo unspecified) + CNCc1ccccc1-c1csc(C(C)Nc2nc(C)nc3cc(OC)c(OC)cc23)c1")
0.42
>>> experimental_value("CC(=O)OC12COC1CC(O)C1(C)C(=O)C(O)C3=C(C)C(OC(=O)C(O)C(NC(=O)OC(C)(C)C)c4ccccc4)CC(O)(C(OC(=O)c4ccccc4)C21)C3(C)C (stereo unspecified) + C=CC(=O)N1CCN(c2nc(=O)n(-c3c(C)ccnc3C(C)C)c3nc(-c4c(O)cccc4F)c(F)cc23)C(C)C1")
24.1
>>> experimental_value("CC1(C)CCC(CN2CCN(c3ccc(C(=O)NS(=O)(=O)c4ccc(NCC5CCOCC5)c([N+](=O)[O-])c4)c(Oc4cnc5[nH]ccc5c4)c3)CC2)=C(c2ccc(Cl)cc2)C1 + CNCc1ccccc1-c1csc(C(C)Nc2nc(C)nc3cc(OC)c(OC)cc23)c1")
0.12
>>> experimental_value("COC(=O)c1ccc2c(C(=Nc3ccc(N(C)C(=O)CN4CCN(C)CC4)cc3)c3ccccc3)c(O)[nH]c2c1 + COc1cc2nc(C)nc(NC(C)c3cc(N)cc(C(F)(F)F)c3)c2cc1OC1CCOC1")
1.22
>>> experimental_value("COc1cc(Nc2ncc3c(n2)-c2ccc(Cl)cc2C(c2c(F)cccc2OC)=NC3)ccc1C(=O)O + C=CC(=O)N1CCN(c2nc(=O)n(-c3c(C)ccnc3C(C)C)c3nc(-c4c(O)cccc4F)c(F)cc23)C(C)C1")
22.4
>>> experimental_value("CC1(C)CCC(CN2CCN(c3ccc(C(=O)NS(=O)(=O)c4ccc(NCC5CCOCC5)c([N+](=O)[O-])c4)c(Oc4cnc5[nH]ccc5c4)c3)CC2)=C(c2ccc(Cl)cc2)C1 + C=CC(=O)N1CCN(c2nc(=O)n(-c3c(C)ccnc3C(C)C)c3nc(-c4c(O)cccc4F)c(F)cc23)C(C)C1")
93.8
